Data provenance: patent US20250098679A1

# Test system: Ipomoea hederacea (IPOHE)
# methodNotes: Post-emergence Test, Ipomoea hederacea (IPOHE)
# Format: in vivo
# Parameters: key: 5=81-100%, 4=61-80%, 3=41-60%, 2=21-40%, 1=0-20% damage
# protocolConditions: 1000 g/ha, evaluated after 13 days
measurementLabel: percentage damage caused to the plant, IPOHE (five-point scale)

[[record]]
compound = "CCn1c(Cn2cncn2)cc(=O)c(C(=O)O)c1-c1ccc(Cl)c(Cl)c1 [Compound 49]"
reportedvalue = 0

[[record]]
compound = "CCOC(=O)c1c(-c2ccc(Cl)c(Cl)c2)n(CC)c(Cn2ccc(C(F)(F)F)n2)cc1=O [Compound 1]"
reportedvalue = "1 (1=0-20%)"

[[record]]
compound = "CCn1c(Cn2nccc2C#N)cc(=O)c(C(=O)O)c1-c1ccc(Cl)c(Cl)c1 [Compound 176]"
reportedvalue = "3 (3=41-60%)"

[[record]]
compound = "CCn1c(Cn2nc(Cl)cc2Cl)cc(=O)c(C(=O)O)c1-c1ccc(Cl)c(Cl)c1 [Compound 134]"
reportedvalue = "3 (3=41-60%)"

[[record]]
compound = "CCn1c(Cn2ccc(COC)n2)cc(=O)c(C(=O)O)c1-c1ccc(Cl)c(Cl)c1 [Compound 162]"
reportedvalue = "4 (4=61-80%)"

[[record]]
compound = "CCn1c(Cn2cc(Cl)c(C3CC3)n2)cc(=O)c(C(=O)O)c1-c1ccc(Cl)c(Cl)c1 [Compound 94]"
reportedvalue = "3 (3=41-60%)"

[[record]]
compound = "CCn1c(Cn2cc(C)cn2)cc(=O)c(C(=O)O)c1-c1ccc(Cl)c(Cl)c1 [Compound 91]"
reportedvalue = "3 (3=41-60%)"

[[record]]
compound = "CCn1c(Cn2ccc(C(F)(F)F)n2)cc(=O)c(C(=O)O)c1-c1ccc(Cl)c(S(C)(=O)=O)c1 [Compound 116]"
reportedvalue = "1 (1=0-20%)"


---

# Test system: Ipomoea hederacea (IPOHE)
# methodNotes: Post-emergence Test, Ipomoea hederacea (IPOHE)
# Assay type: in vivo
# Set-up: key: 5=81-100%, 4=61-80%, 3=41-60%, 2=21-40%, 1=0-20% damage
# protocolConditions: 1000 g/ha, evaluated after 13 days
# Method: Seeds of a variety of test species are sown in standard soil in pots (Setaria faberi (SETFA), Echinochloa crus-galli (ECHCG), Zea mays (ZEAMX), Ipomoea hederacea (IPOHE), Amaranthus palmeri (AMAPA), Amaranthus retoflexus (AMARE)). […] After 13 days the test is evaluated for the percentage damage caused to the plant. […]
Property: percentage damage caused to the plant, IPOHE (five-point scale); scope: individual compounds
measurementLabel: percentage damage caused to the plant, IPOHE (five-point scale)

[[record]]
linenotation = "CCOCc1ccnn1Cc1cc(=O)c(C(=O)O)c(-c2ccc(Cl)c(Cl)c2)n1CC"
reportedvalue = "1 (1=0-20%)"

[[record]]
linenotation = "CCn1c(Cn2nc(C(F)F)cc2C)cc(=O)c(C(=O)O)c1-c1ccc(Cl)c(Cl)c1"
reportedvalue = "4 (4=61-80%)"

[[record]]
linenotation = "CCn1c(Cn2cc(C)c(C(F)(F)F)n2)cc(=O)c(C(=O)O)c1-c1ccc(Cl)c(Cl)c1"
reportedvalue = 0

[[record]]
linenotation = "CCn1c(Cn2cnc(OC)n2)cc(=O)c(C(=O)O)c1-c1ccc(Cl)c(Cl)c1"
reportedvalue = "2 (2=21-40%)"

[[record]]
linenotation = "CCn1c(Cn2nc3ccccc3n2)cc(=O)c(C(=O)O)c1-c1ccc(Cl)c(Cl)c1"
reportedvalue = "3 (3=41-60%)"

[[record]]
linenotation = "CCn1c(Cn2nc(C(F)(F)F)nc2C)cc(=O)c(C(=O)O)c1-c1ccc(Cl)c(Cl)c1"
reportedvalue = 0

[[record]]
linenotation = "CCOc1cc(C)nn1Cc1cc(=O)c(C(=O)O)c(-c2ccc(Cl)c(Cl)c2)n1CC"
reportedvalue = "2 (2=21-40%)"

[[record]]
linenotation = "CCn1c(Cn2ccc(-c3ccc(F)cc3)n2)cc(=O)c(C(=O)O)c1-c1ccc(Cl)c(Cl)c1"
reportedvalue = "2 (2=21-40%)"

[[record]]
linenotation = "CCn1c(Cn2nc(C#N)cc2C#N)cc(=O)c(C(=O)O)c1-c1ccc(Cl)c(Cl)c1"
reportedvalue = 0

[[record]]
linenotation = "CCOC(=O)c1c(-c2ccc(Cl)c(Cl)c2)n(CC)c(Cn2cnc([N+](=O)[O-])c2)cc1=O"
reportedvalue = "1 (1=0-20%)"

[[record]]
linenotation = "CCOC(=O)c1c(-c2ccc(Cl)c(Cl)c2)n(CC)c(Cn2cc(F)cn2)cc1=O"
reportedvalue = "1 (1=0-20%)"

[[record]]
linenotation = "CCn1c(Cn2ncc3cc(F)ccc32)cc(=O)c(C(=O)O)c1-c1ccc(Cl)c(Cl)c1"
reportedvalue = "3 (3=41-60%)"

[[record]]
linenotation = "CCn1c(Cn2cnc(F)c2)cc(=O)c(C(=O)O)c1-c1ccc(Cl)c(Cl)c1"
reportedvalue = 0

[[record]]
linenotation = "CCn1c(Cn2ccc(Cl)n2)cc(=O)c(C(=O)O)c1-c1ccc(C#N)c(Cl)c1"
reportedvalue = "2 (2=21-40%)"

[[record]]
linenotation = "CCn1c(Cn2cc3c(n2)CCCC3)cc(=O)c(C(=O)O)c1-c1ccc(Cl)c(Cl)c1"
reportedvalue = "3 (3=41-60%)"

[[record]]
linenotation = "CCn1c(Cn2ccc(Cl)n2)cc(=O)c(C(=O)O)c1-c1ccc(S(C)(=O)=O)c(Cl)c1"
reportedvalue = "1 (1=0-20%)"


---

# Tested on: Echinochloa crus-galli (ECHCG)
# methodNotes: Post-emergence Test, Echinochloa crus-galli (ECHCG)
# Type: in vivo
# Set-up: key: 5=81-100%, 4=61-80%, 3=41-60%, 2=21-40%, 1=0-20% damage
# protocolConditions: 1000 g/ha, evaluated after 13 days
Listing of entries alongside the reported percentage damage caused to the plant, ECHCG (five-point scale).
measurementLabel: percentage damage caused to the plant, ECHCG (five-point scale)

[[record]]
compound = "CCOC(=O)c1c(-c2ccc(Cl)c(Cl)c2)n(CC)c(Cn2ccnc2)c(Br)c1=O"
reportedvalue = "1 (1=0-20%)"

[[record]]
compound = "CCn1c(Cn2cc(C)cn2)cc(=O)c(C(=O)O)c1-c1ccc(Cl)c(Cl)c1"
reportedvalue = "1 (1=0-20%)"

[[record]]
compound = "CCn1c(Cn2cnc(OC)n2)cc(=O)c(C(=O)O)c1-c1ccc(Cl)c(Cl)c1"
reportedvalue = "1 (1=0-20%)"

[[record]]
compound = "CCn1c(Cn2ccc(C(F)(F)F)n2)c(C)c(=O)c(C(=O)O)c1-c1ccc(Cl)c(Cl)c1"
reportedvalue = "3 (3=41-60%)"

[[record]]
compound = "CCn1c(Cn2nc(C)cc2Cl)cc(=O)c(C(=O)O)c1-c1ccc(Cl)c(Cl)c1"
reportedvalue = "4 (4=61-80%)"

[[record]]
compound = "Cn1c(Cn2ccc(Cl)n2)cc(=O)c(C(=O)O)c1-c1ccc(Cl)c(Cl)c1"
reportedvalue = "4 (4=61-80%)"

[[record]]
compound = "CCOCc1ccnn1Cc1cc(=O)c(C(=O)O)c(-c2ccc(Cl)c(Cl)c2)n1CC"
reportedvalue = 0

[[record]]
compound = "CCn1c(Cn2cc3c(n2)COC3)cc(=O)c(C(=O)O)c1-c1ccc(Cl)c(Cl)c1"
reportedvalue = "4 (4=61-80%)"

[[record]]
compound = "CCn1c(Cn2ccc(C(F)(F)F)n2)cc(=O)c(C(=O)O)c1-c1ccc(F)c(F)c1"
reportedvalue = "4 (4=61-80%)"

[[record]]
compound = "CCOC(=O)c1c(-c2ccc(Cl)c(Cl)c2)n(CC)c(Cn2cnc(Cl)c2Cl)cc1=O"
reportedvalue = "1 (1=0-20%)"

[[record]]
compound = "COCCn1c(Cn2ccc(Cl)n2)cc(=O)c(C(=O)O)c1-c1ccc(Cl)c(Cl)c1"
reportedvalue = "3 (3=41-60%)"

[[record]]
compound = "CCOC(=O)c1c(-c2ccc(Cl)c(Cl)c2)n(CC)c(Cn2cc(F)cn2)cc1=O"
reportedvalue = "1 (1=0-20%)"

[[record]]
compound = "CCn1c(Cn2nc(C(F)(F)F)cc2C)cc(=O)c(C(=O)O)c1-c1ccc(Cl)c(Cl)c1 [Compound 13a]"
reportedvalue = "4 (4=61-80%)"

[[record]]
compound = "CCn1c(Cn2nc(C)cc2C)cc(=O)c(C(=O)O)c1-c1ccc(Cl)c(Cl)c1"
reportedvalue = "4 (4=61-80%)"

[[record]]
compound = "C=CCOc1ccn(Cc2cc(=O)c(C(=O)O)c(-c3ccc(Cl)c(Cl)c3)n2CC)n1"
reportedvalue = "3 (3=41-60%)"

[[record]]
compound = "CCOC(=O)c1c(-c2ccc(Cl)c(Cl)c2)n(CC)c(Cn2ccc(Cl)n2)cc1=O"
reportedvalue = "3 (3=41-60%)"

[[record]]
compound = "CCOC(=O)c1c(-c2ccc(Cl)c(Cl)c2)n(CC)c(Cn2ccc(C(F)(F)F)n2)cc1=O"
reportedvalue = "4 (4=61-80%)"

[[record]]
compound = "CCn1c(Cn2nc(C(F)(F)F)cc2OC(F)F)cc(=O)c(C(=O)O)c1-c1ccc(Cl)c(Cl)c1"
reportedvalue = "4 (4=61-80%)"

[[record]]
compound = "CCn1c(Cn2ccc(C(F)(F)F)n2)cc(=O)c(C(=O)O)c1-c1ccc(Cl)c(F)c1"
reportedvalue = "4 (4=61-80%)"

[[record]]
compound = "CCn1c(Cn2ccc(C(F)(F)F)n2)cc(=O)c(C(=O)O)c1-c1ccc(N)c(Cl)c1"
reportedvalue = 0

[[record]]
compound = "CCn1c(Cn2nc(C)cc2OC(F)F)cc(=O)c(C(=O)O)c1-c1ccc(Cl)c(Cl)c1"
reportedvalue = "4 (4=61-80%)"

[[record]]
compound = "CCn1c(Cn2ccnc2C2CC2)cc(=O)c(C(=O)O)c1-c1ccc(Cl)c(Cl)c1"
reportedvalue = "1 (1=0-20%)"

[[record]]
compound = "CCOc1cc(C)nn1Cc1cc(=O)c(C(=O)O)c(-c2ccc(Cl)c(Cl)c2)n1CC"
reportedvalue = "4 (4=61-80%)"

[[record]]
compound = "CCc1ncnn1Cc1cc(=O)c(C(=O)O)c(-c2ccc(Cl)c(Cl)c2)n1CC"
reportedvalue = "1 (1=0-20%)"

[[record]]
compound = "CCn1c(Cn2nc3ccccc3n2)cc(=O)c(C(=O)O)c1-c1ccc(Cl)c(Cl)c1"
reportedvalue = "2 (2=21-40%)"

[[record]]
compound = "CCn1c(Cn2ccc(C(F)(F)F)n2)cc(=O)c(C(=O)O)c1-c1ccc(Cl)c(Cl)c1"
reportedvalue = "4 (4=61-80%)"

[[record]]
compound = "CCn1c(Cn2nc(Cl)cc2Cl)cc(=O)c(C(=O)O)c1-c1ccc(Cl)c(Cl)c1"
reportedvalue = "4 (4=61-80%)"

[[record]]
compound = "CCn1c(Cn2cc(C(F)F)cn2)cc(=O)c(C(=O)O)c1-c1ccc(Cl)c(Cl)c1"
reportedvalue = "4 (4=61-80%)"

[[record]]
compound = "CCn1c(Cn2nc(C(F)(F)F)nc2C)cc(=O)c(C(=O)O)c1-c1ccc(Cl)c(Cl)c1"
reportedvalue = "2 (2=21-40%)"

[[record]]
compound = "COCCn1c(Cn2ccc(C(F)(F)F)n2)cc(=O)c(C(=O)O)c1-c1ccc(Cl)c(Cl)c1"
reportedvalue = "4 (4=61-80%)"

[[record]]
compound = "CCn1c(Cn2ccc(C(F)(F)F)n2)cc(=O)c(C(=O)O)c1-c1cccc(Cl)c1"
reportedvalue = "4 (4=61-80%)"

[[record]]
compound = "CCOC(=O)c1c(-c2ccc(Cl)c(Cl)c2)n(CC)c(Cn2ccc(C(F)(F)F)n2)c(Br)c1=O"
reportedvalue = "2 (2=21-40%)"

